- Test Target: recombinant BACE1 protein (Homo sapiens, UniProt P56817)
- Sequence (P56817 46-501): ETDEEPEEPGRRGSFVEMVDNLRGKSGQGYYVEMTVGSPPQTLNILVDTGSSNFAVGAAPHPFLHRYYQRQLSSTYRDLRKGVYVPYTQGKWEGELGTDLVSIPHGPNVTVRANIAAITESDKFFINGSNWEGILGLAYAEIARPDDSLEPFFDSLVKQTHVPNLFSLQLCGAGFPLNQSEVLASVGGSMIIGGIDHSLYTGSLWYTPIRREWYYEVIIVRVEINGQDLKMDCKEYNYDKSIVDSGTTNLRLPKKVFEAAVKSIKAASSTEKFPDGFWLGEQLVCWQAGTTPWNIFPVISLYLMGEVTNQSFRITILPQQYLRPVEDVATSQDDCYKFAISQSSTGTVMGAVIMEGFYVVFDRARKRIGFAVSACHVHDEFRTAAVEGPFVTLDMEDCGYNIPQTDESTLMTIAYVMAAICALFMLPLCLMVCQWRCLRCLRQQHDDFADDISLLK
- Assay Summary: Biochemical FRET based assay
- Cond: recombinant BACE1 1 μg/ml, 120 minutes, room temperature, pH 5.0; read-out: Biochemical FRET based assay pIC50 (converted)
Measurement Type: IC50 (nM)

Take a look at these entries with their results.
# Compound, Result Units, IC50
measured = [
    ("C[C@]1(c2cc(NC(=O)c3ccc(C#N)cn3)ccc2F)N=C(N)COC1C(F)F (single isomer, unassigned) [Compound 7]", "nM", 53.7),
    ("CCC1(c2cc(NC(=O)c3cnc(OC)cn3)ccc2F)N=C(N)COC1C(F)F (racemic) [Compound 3]", "nM", 63.1),
    ("C[C@]1(c2cc(NC(=O)c3ccc(F)cn3)ccc2F)N=C(N)COC1C(F)F (single isomer, unassigned) [Compound 2]", "nM", 35.5),
]

a = C[C@]1(c2cc(-c3cncnc3)ccc2F)N=C(N)COC1C(F)F (single isomer, unassigned) [Compound 4]
b = COc1cnc(C(=O)Nc2ccc(F)c([C@@]3(C)N=C(N)COC3C(F)F)c2)cn1 (single isomer, unassigned) [Compound 1]
**Q:** Could you please tell me which of these two has the higher IC50: a or b ? Output the label that corresponds to your choice.
**A:** a
(a: 427 nM, b: 35.5 nM)

---

- Tested on: Abeta total produced and secreted by human neuroblastoma SKNBE2 cells expressing hAPP695
- Assay Summary: Cellular αLisa assay in SKNBE2 cells, Abeta total
- Format: cell-based
- Cond: incubated for 18 hours, read-out: Cellular αLisa assay in SKNBE2 cells Abetatotal pIC50 (converted)
Measurement Type: IC50 (nM)

Take a look at these entries with their results.
# Compound, Measurement Type, Result Units, Endpoint Result
measured = [
    ("CCC1(c2cc(NC(=O)c3cnc(OC)cn3)ccc2F)N=C(N)COC1C(F)F (racemic)", "IC50", "nM", 3.72),
    ("C[C@]1(c2cccc(-c3cncnc3)c2)N=C(N)COC1C(F)F (single isomer, unassigned)", "IC50", "nM", 117),
    ("CC1(c2cc(NC(=O)c3ccc(Cl)cn3)ccc2F)N=C(N)COC1C(F)F (single isomer, unassigned)", "IC50", "nM", 3.39),
    ("C[C@]1(c2cc(NC(=O)c3ccc(C#N)cn3)ccc2F)N=C(N)COC1C(F)F (single isomer, unassigned)", "IC50", "nM", 3.09),
]

A = COc1cnc(C(=O)Nc2ccc(F)c([C@@]3(C)N=C(N)COC3C(F)F)c2)cn1 (single isomer, unassigned)
B = C[C@]1(c2cc(-c3cncnc3)ccc2F)N=C(N)COC1C(F)F (single isomer, unassigned)
C = C[C@]1(c2cc(NC(=O)c3ccc(F)cn3)ccc2F)N=C(N)COC1C(F)F (single isomer, unassigned)
**Q:** Order the 3 compounds from highest to lowest IC50. The response must list the labels following the requested ordering.
**A:** B, C, A
